Recorded values, source ChEMBL document CHEMBL5226295.

- system-tested: Bromodomain-containing protein 4 (Homo sapiens, UniProt O60885)
- experimental-details: Inhibition of poly His-tagged BRD4 BD2 (unknown origin) (348 to 455 residues) by BROMOscan assay
experimental-readout: pIC50
Answer as the number alone; pIC50 is minus log10 of concentration in mol/L.

Query string: Reported pIC50 for COC(=O)c1ccc(N[C@@H]2C[C@H](C)N(C(C)=O)c3ccc(-c4cccc(NC(C)=O)c4)cc32)cc1 : what is it?
Result string: 9.38

====

- system-tested: Histone deacetylase 3 (Homo sapiens)
- Sequence (O15379 whole entry): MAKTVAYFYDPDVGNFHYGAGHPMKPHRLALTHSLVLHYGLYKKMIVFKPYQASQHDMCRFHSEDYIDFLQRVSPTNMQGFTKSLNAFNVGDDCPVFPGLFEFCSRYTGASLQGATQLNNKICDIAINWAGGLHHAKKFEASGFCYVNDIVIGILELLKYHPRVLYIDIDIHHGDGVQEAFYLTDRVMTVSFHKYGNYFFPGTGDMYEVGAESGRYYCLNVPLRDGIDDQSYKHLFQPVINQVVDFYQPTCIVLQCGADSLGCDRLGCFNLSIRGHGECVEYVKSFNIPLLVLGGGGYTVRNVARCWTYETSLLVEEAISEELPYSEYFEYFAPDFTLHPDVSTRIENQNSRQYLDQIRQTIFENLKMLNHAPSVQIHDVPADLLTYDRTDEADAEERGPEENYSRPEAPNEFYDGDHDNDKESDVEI
- experimental-details: Inhibition of recombinant human HDAC3 using Boc-Lys(Ac)-AMC as substrate preincubated for 15 mins followed by substrate addition and measured after 60 mins by fluorescence based assay
experimental-readout: pIC50
Answer as the number alone; pIC50 is minus log10 of concentration in mol/L.

Query string: Reported pIC50 for Cc1noc(C)c1-c1ccc2c(c1)C(Cc1ccc(F)cc1)CN2CCCCCCC(=O)NO (stereo unspecified) : what is it?
Result string: 8.30
